- Tested On: T1, CD3 epsilon homodimer protein (UniProt P07766 23-126)
- T1 construct: also called CD3 (CD3 epsilon)
- T1 sequence (P07766 23-126): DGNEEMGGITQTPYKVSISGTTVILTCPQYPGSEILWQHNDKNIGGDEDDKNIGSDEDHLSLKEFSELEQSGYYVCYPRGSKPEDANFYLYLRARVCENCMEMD
- Measurement Protocol: SPR Biacore T200, CD3e homodimer on chip, vs unaltered GLS3000 antibody
Quantity Name: ratio of amounts bound (Z=Y/X)
Write the value as a bare number.

Please give measured ratio of amounts bound (Z=Y/X) of the following entry: GLS3000 R54G (antibody, name in Kabat numbering, V domains shown, one-arm IgG as m2) VH: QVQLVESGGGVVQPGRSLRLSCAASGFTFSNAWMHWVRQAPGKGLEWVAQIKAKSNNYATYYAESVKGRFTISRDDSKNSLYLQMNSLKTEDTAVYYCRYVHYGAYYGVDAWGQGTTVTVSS VL: DIVMTQSPLSLPVTPGEPASISCRSSQSLVHSNRNTYLHWYQQKPGQAPRLLIYKVSNGFSGVPDRFSGSGSGTDFTLKISRVEAEDVGVYYCGQGTQVPYTFGQGTKLEIK 0.67

Please give the documented ratio of amounts bound (Z=Y/X) of GLS3000 N53W (antibody, name in Kabat numbering, V domains shown, one-arm IgG as m2) VH: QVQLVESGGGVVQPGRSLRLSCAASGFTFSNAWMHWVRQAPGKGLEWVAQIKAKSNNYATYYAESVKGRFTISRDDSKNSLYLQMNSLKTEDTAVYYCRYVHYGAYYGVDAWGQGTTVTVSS VL: DIVMTQSPLSLPVTPGEPASISCRSSQSLVHSNRNTYLHWYQQKPGQAPRLLIYKVSWRFSGVPDRFSGSGSGTDFTLKISRVEAEDVGVYYCGQGTQVPYTFGQGTKLEIK 0.81

Indicate the recorded ratio of amounts bound (Z=Y/X) value for this binder: GLS3000 F55Y (antibody, name in Kabat numbering, V domains shown, one-arm IgG as m2) VH: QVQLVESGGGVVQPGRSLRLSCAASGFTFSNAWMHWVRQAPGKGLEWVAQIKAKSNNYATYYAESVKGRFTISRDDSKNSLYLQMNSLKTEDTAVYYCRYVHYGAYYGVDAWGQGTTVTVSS VL: DIVMTQSPLSLPVTPGEPASISCRSSQSLVHSNRNTYLHWYQQKPGQAPRLLIYKVSNRYSGVPDRFSGSGSGTDFTLKISRVEAEDVGVYYCGQGTQVPYTFGQGTKLEIK 0.92
